FYI, the data here is from patent US20260226086A1.

- target: STAT3 (Homo sapiens, UniProt P40763)
- Construct: This cell line is a clone created by using CRISPR-Cas9 to fuse HiBiT to the 3′ end of STAT3 in HeLa cells; host or cells: STAT3-HiBiT KI HeLa cell line (CRISPR-Cas9 knock-in clone)
- Sequence (P40763 whole entry): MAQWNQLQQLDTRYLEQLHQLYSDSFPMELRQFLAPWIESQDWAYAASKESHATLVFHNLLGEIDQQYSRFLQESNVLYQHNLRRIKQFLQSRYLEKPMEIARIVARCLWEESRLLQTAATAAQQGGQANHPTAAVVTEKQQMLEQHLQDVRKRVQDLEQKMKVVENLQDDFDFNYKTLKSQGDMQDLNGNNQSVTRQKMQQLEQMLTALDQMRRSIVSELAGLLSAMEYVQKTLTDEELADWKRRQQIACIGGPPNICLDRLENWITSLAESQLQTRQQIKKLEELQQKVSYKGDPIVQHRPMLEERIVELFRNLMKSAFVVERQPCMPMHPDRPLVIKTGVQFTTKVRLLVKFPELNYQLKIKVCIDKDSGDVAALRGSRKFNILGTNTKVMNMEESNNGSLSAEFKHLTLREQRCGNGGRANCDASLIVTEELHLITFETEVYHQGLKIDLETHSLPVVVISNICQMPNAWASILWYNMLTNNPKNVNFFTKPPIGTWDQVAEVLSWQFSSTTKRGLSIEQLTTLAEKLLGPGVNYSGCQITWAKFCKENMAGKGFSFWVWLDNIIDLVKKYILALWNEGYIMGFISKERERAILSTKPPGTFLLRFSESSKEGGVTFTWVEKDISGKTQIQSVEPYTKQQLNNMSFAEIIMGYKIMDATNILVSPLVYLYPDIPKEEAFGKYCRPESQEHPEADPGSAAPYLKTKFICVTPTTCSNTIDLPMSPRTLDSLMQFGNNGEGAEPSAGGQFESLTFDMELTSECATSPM
- experimental.protocol: HiBiT assay, STAT3 degradation in STAT3-HiBiT KI HeLa cells
- Type: cell-based
- reported.conditions: 24 h, @1 μM
readout.name: Dmax at 1 µM

Below: 2 compounds and their reported Dmax at 1 µM.
smiles.structure	readout.name	result.value
CC(=O)N1CC[C@H]2CC[C@@H](C(=O)N[C@@H](CCC(N)=O)COc3cccc(CCCCN4CCC([C@@H](C(=O)N5C[C@H](O)C[C@H]5C(=O)N[C@@H](C)c5ccc(-c6scnc6C)cc5)n5cc(C6CC6)nn5)CC4)c3Cl)N2C(=O)[C@@H](NC(=O)c2cc3cc(C(=O)P(=O)(O)O)ccc3[nH]2)C1	Dmax at 1 µM	60 to 80%
COCCOCCOCCOC[C@H](NC(=O)[C@@H]1C[C@@H](O)CN1C(=O)[C@@H](n1cc(CCCc2cccc(OC[C@H](CCC(N)=O)NC(=O)[C@@H]3CC[C@@H]4CCN(C(C)=O)C[C@H](NC(=O)c5cc6cc(C(=O)P(=O)(O)O)ccc6[nH]5)C(=O)N43)c2Cl)nn1)C(C)(C)C)c1ccc(-c2scnc2C)cc1	Dmax at 1 µM	> 80%

Data request: Query (compound): `CC(=O)N1CC[C@H]2CC[C@@H](C(=O)N[C@@H](CCC(N)=O)COc3cccc(CCCc4cn([C@H](C(=O)N5C[C@H](O)C[C@H]5C(=O)N[C@@H](CO)c5ccc(-c6scnc6C)cc5)C(C)(C)C)nn4)c3Cl)N2C(=O)[C@@H](NC(=O)c2cc3cc(C(=O)P(=O)(O)O)ccc3[nH]2)C1` ; field requested: Dmax at 1 µM
Data returned: > 80%

Data request: Fill in the blank: the reported Dmax at 1 µM of `CC(=O)N1CC[C@H]2CC[C@@H](C(=O)N[C@@H](CCC(N)=O)COc3cccc(CCCc4cn([C@H](C(=O)N5C[C@H](O)C[C@H]5C(=O)N[C@@H](C)c5ccc(-c6scnc6C)cc5)C(C)(C)C)nn4)c3Cl)N2C(=O)[C@@H](NC(=O)c2cc3cc(C(=O)P(=O)(O)O)ccc3[nH]2)C1` is ____.
Data returned: > 80%

Data request: Look up Dmax at 1 µM: `CCS(=O)(=O)c1ccc(CNC(=O)[C@H](CCC(N)=O)NC(=O)[C@@H]2CC[C@@H]3CCN(C(=O)CCCCCc4cn([C@H](C(=O)N5C[C@H](O)C[C@H]5C(=O)N[C@@H](COCCOCCOC)c5ccc(-c6scnc6C)cc5)C(C)(C)C)nn4)C[C@H](NC(=O)c4cc5cc(C(=O)P(=O)(O)O)ccc5[nH]4)C(=O)N32)cc1`
Data returned: > 80%

Data request: State the recorded Dmax at 1 µM for this entry: `CC(=O)N1CC[C@H]2CC[C@@H](C(=O)N[C@@H](CCC(N)=O)COc3cccc(CCCc4cn([C@H](C(=O)N5C[C@H](O)C[C@H]5C(=O)N[C@@H](C)c5ccc(-c6scnc6C)cc5)C5CCN(C6CCOCC6)CC5)nn4)c3Cl)N2C(=O)[C@@H](NC(=O)c2cc3cc(C(=O)P(=O)(O)O)ccc3[nH]2)C1`
Data returned: 60 to 80%

Data request: For the compound `CCS(=O)(=O)c1ccc(CNC(=O)[C@H](CCC(N)=O)NC(=O)[C@@H]2CC[C@@H]3CCN(C(=O)CCCCCCc4cn([C@H](C(=O)N5C[C@H](O)C[C@H]5C(=O)N[C@@H](C)c5ccc(-c6scnc6C)cc5)C(C)(C)C)nn4)C[C@H](NC(=O)c4cc5cc(C(=O)P(=O)(O)O)ccc5[nH]4)C(=O)N32)cc1` , what Dmax at 1 µM is on record?
Data returned: > 80%

Data request: # input compound: `CC(=O)N1CC[C@H]2CC[C@@H](C(=O)N[C@@H](CCC(N)=O)COc3cccc(CCCc4cn([C@H](C(=O)N5C[C@H](O)C[C@H]5C(=O)N[C@@H](CCN5CCOCC5)c5ccc(-c6scnc6C)cc5)C(C)(C)C)nn4)c3Cl)N2C(=O)[C@@H](NC(=O)c2cc3cc(C(=O)P(=O)(O)O)ccc3[nH]2)C1` ; wanted: its Dmax at 1 µM
Data returned: > 80%

Data request: Requested read-out: Dmax at 1 µM. Entry: `Cc1ncsc1-c1ccc([C@H](C)NC(=O)[C@@H]2C[C@@H](O)CN2C(=O)[C@@H](n2cc(CCC(=O)N3CC[C@H]4CC[C@@H](C(=O)N[C@@H](CCC(N)=O)C(=O)NCc5cccc(Cl)c5)N4C(=O)[C@@H](NC(=O)c4cc5cc(C(=O)P(=O)(O)O)ccc5[nH]4)C3)nn2)C(C)(C)C)cc1`
Data returned: > 80%
